So I've got a bunch of compounds here, and I need their Activity values.
- Tested on: Respiratory Syncytial Virus
- assay overview: In vitro screening for activity against RSV (tetrazolium-based colorimetric assay, protection against viral cytopathology)
- Format: cell-based
- protocol conditions: Table 1; RSV in HeLa cells, MTT, seven days after infection; pEC50 = -log of EC50 in molar units
No unit in the answer, only the number.

The recorded Activity for Cc1ccc(O)c(Cn2c(N)nc3ccc(CNc4cc(F)cc(C(F)(F)F)c4)cc32)n1 is 7.6

Per the records, this compound ( Cc1ccc(O)c(Cn2c(N)nc3ccc(CNc4cccc(C(=N)N)c4)cc32)n1 ) has Activity equal to 7.7

Activity reading for Cc1ccc(O)c(Cn2c(N)nc3ccc(CNc4ccccc4C#N)cc32)n1 : 7.9

Entry Cc1ccc(O)c(Cn2c(N)nc3ccc(CNc4cc(F)cc(F)c4)cc32)n1 — recorded Activity = 7.5

Looking up CSc1cccc(NCc2ccc3nc(N)n(Cc4nc(C)ccc4O)c3c2)c1 , I found its Activity recorded as 8.3

Item: Cc1ccc(O)c(Cn2c(N)nc3ccc(CNc4ccc(Br)cc4)cc32)n1 | Activity: 7.5

Activity reading for Cc1ccc(O)c(Cn2c(N)nc3ccc(CNc4cccc(S(=O)(=O)CCO)c4)cc32)n1 : 7.8

Memo: Cc1ccc(O)c(Cn2c(N)nc3ccc(CNc4ccc(C)c(C)c4)cc32)n1 , reported Activity: 7.9

Query Cc1cc(C)cc(NCc2ccc3nc(N)n(Cc4nc(C)ccc4O)c3c2)c1 yields Activity of 8.4

Per the record, Cc1ccc(O)c(Cn2c(N)nc3ccc(CNc4cc(Cl)cc(Cl)c4)cc32)n1 has Activity of 8.6

Memo: Cc1ccc(O)c(Cn2c(N)nc3ccc(CNc4cccc(Oc5ccccc5)c4)cc32)n1 , reported Activity: 7.1

Input Cc1ccc(OCCO)c(NCc2ccc3nc(N)n(Cc4nc(C)ccc4O)c3c2)c1 . Output Activity: 10.5

Documented Activity of COc1ccc(NCc2ccc3nc(N)n(Cc4nc(C)ccc4O)c3c2)cc1OC : 7.3

Kindly note the recorded Activity for Cc1ccc(O)c(Cn2c(N)nc3ccc(CNc4ccccc4C(C)(C)C)cc32)n1 , which is 7.2

# Activity (compound: Cc1ccc(O)c(Cn2c(N)nc3ccc(CNc4cccc(C)c4CCO)cc32)n1 ) is 9

Query Cc1ccc(O)c(Cn2c(N)nc3ccc(CNc4ccc(S(N)(=O)=O)cc4)cc32)n1 yields Activity of 8.4

// recorded Activity for CCCCNS(=O)(=O)c1cccc(NCc2ccc3nc(N)n(Cc4nc(C)ccc4O)c3c2)c1 : 7.6

Note to self: Activity recorded for COC(=O)c1cc(NCc2ccc3nc(N)n(Cc4nc(C)ccc4O)c3c2)cc(C(=O)OC)c1 was 7.3

The value of Activity measured for the compound Cc1ccc(O)c(Cn2c(N)nc3ccc(CNc4ccc5c(c4)OCCO5)cc32)n1 turned out to be 7.6

Note to self: Activity recorded for Cc1ccc(O)c(Cn2c(N)nc3ccc(CNc4cccc(Br)c4)cc32)n1 was 8.6

Record summary for Cc1ccc(O)c(Cn2c(N)nc3ccc(CNc4cc(Cl)c(O)c(Cl)c4)cc32)n1 : reported Activity = 7.1

Item: Cc1ccc(O)c(Cn2c(N)nc3ccc(CNc4cccc(CC(=O)O)c4)cc32)n1 | Activity: 7.6

The measured Activity associated with Cc1ccc(O)c(Cn2c(N)nc3ccc(CNc4cccc(Cl)c4C)cc32)n1 reads 7.8

// Activity lookup, compound = CCOC(=O)c1ccccc1NCc1ccc2nc(N)n(Cc3nc(C)ccc3O)c2c1 , result: 7.2

Notebook: Cc1ccc(O)c(Cn2c(N)nc3ccc(CNc4cc(C(C)(C)C)cc(C(C)(C)C)c4)cc32)n1 , Activity read as 6.8

response.value for Cc1ccc(O)c(Cn2c(N)nc3ccc(CNc4cccc5cccnc45)cc32)n1 (field: Activity) = 7.6

CC(=O)O.CCc1ccccc1NCc1ccc2nc(N)n(Cc3nc(C)ccc3O)c2c1 yielded Activity of 8.4
